# Lookup of reported AUC(0-t) keyed by entry
# experimental_details: Pharmacokinetics of four compounds in plasma after oral administration of GSBXD and its plus-minus prescriptions in normal rats (LC-MS/MS)
# Type: in vivo
# test_context: Wistar, rat, group GC (extract of Gancao), oral, normal rats, n = 6, mean ± S.D.
// units = ng·h/mL; emit number, no label

| compound | units_label | AUC(0-t) |
| --- | --- | --- |
| O=C1C[C@@H](c2ccc(O[C@@H]3O[C@H](CO)[C@@H](O)[C@H](O)[C@H]3O)cc2)Oc2cc(O)ccc21 [Compound 2, liquiritin] | ng·h/mL | 797 |

Ask: Return reported AUC(0-t); argument: CC1(C)[C@@H](O[C@H]2O[C@H](C(=O)O)[C@@H](O)[C@H](O)[C@H]2O[C@@H]2O[C@H](C(=O)O)[C@@H](O)[C@H](O)[C@H]2O)CC[C@]2(C)[C@H]3C(=O)C=C4[C@@H]5C[C@@](C)(C(=O)O)CC[C@]5(C)CC[C@@]4(C)[C@]3(C)CC[C@@H]12 [Compound 1, glycyrrhizinic acid]
Reply: 486

---

# experimental_details: Stability of the four compounds in rat plasma QC samples (freeze-thaw, storage at −80 °C, autosampler)
# Assay type: physicochemical
# test_context: rat plasma, three freeze-thaw cycles −80 °C to 20 °C, middle QC concentration (3.09 × 10^2, 1.38 × 10^2, 1.43 × 10^2, 1.77 × 10^2 ng/mL for 1–4)
quantity_kind: Stability, Freeze-thaw cycles, Accuracy (%)
// units = %; emit number, no label

| compound | Stability, Freeze-thaw cycles, Accuracy [%] |
| --- | --- |
| C[C@@]12C[C@@]3(O)O[C@@H](O1)[C@]1(COC(=O)c4ccccc4)[C@H]3C[C@@]12O[C@@H]1O[C@H](CO)[C@@H](O)[C@H](O)[C@H]1O | 92.10 |
| CC1(C)[C@@H](O[C@H]2O[C@H](C(=O)O)[C@@H](O)[C@H](O)[C@H]2O[C@@H]2O[C@H](C(=O)O)[C@@H](O)[C@H](O)[C@H]2O)CC[C@]2(C)[C@H]3C(=O)C=C4[C@@H]5C[C@@](C)(C(=O)O)CC[C@]5(C)CC[C@@]4(C)[C@]3(C)CC[C@@H]12 | 91.02 |
| CC12CC(O)C3CC1(OC1OC(CO)C(O)C(O)C1O)C3(COC(=O)c1ccccc1)C(=O)O2 (stereo not shown) | 102.34 |

Kindly review the next compound as well.
Ask: Return reported Stability, Freeze-thaw cycles, Accuracy; argument: `O=C1C[C@@H](c2ccc(O[C@@H]3O[C@H](CO)[C@@H](O)[C@H](O)[C@H]3O)cc2)Oc2cc(O)ccc21`
Reply: 89.99

---

# experimental_details: Pharmacokinetics of four compounds in plasma after oral administration of GSBXD and its plus-minus prescriptions in normal rats (LC-MS/MS)
# Format: in vivo
# test_context: Wistar, rat, 12 mL/kg, group GSBXD-GG (GSBXD minus Gancao and Gansui), 12 mL/kg oral, normal rats, n = 6, mean ± S.D.
quantity_kind: Tmax (min)
// units = min; emit number, no label

Ask: Return reported Tmax; argument: CC12CC(O)C3CC1(OC1OC(CO)C(O)C(O)C1O)C3(COC(=O)c1ccccc1)C(=O)O2 (stereo not shown)
Reply: 33.6

---

# Lookup of reported Stability, Autosampler for 24 h, Accuracy keyed by entry
# experimental_details: Stability of the four compounds in rat plasma QC samples (freeze-thaw, storage at −80 °C, autosampler)
# Type: physicochemical
# test_context: processed rat plasma, auto-sampler 4 °C for 24 h, low QC concentration (1.91 × 10, 4.32, 1.78 × 10, 1.11 × 10 ng/mL for 1–4)
// units = %; emit number, no label

# annotated cases, reported Stability, Autosampler for 24 h, Accuracy shown
| compound | numeric_result |
| --- | --- |
| CC12CC(O)C3CC1(OC1OC(CO)C(O)C(O)C1O)C3(COC(=O)c1ccccc1)C(=O)O2 (stereo not shown) [Compound 4, albiflorin] | 97.15 |
| C[C@@]12C[C@@]3(O)O[C@@H](O1)[C@]1(COC(=O)c4ccccc4)[C@H]3C[C@@]12O[C@@H]1O[C@H](CO)[C@@H](O)[C@H](O)[C@H]1O [Compound 3, paeoniflorin] | 98.03 |
| CC1(C)[C@@H](O[C@H]2O[C@H](C(=O)O)[C@@H](O)[C@H](O)[C@H]2O[C@@H]2O[C@H](C(=O)O)[C@@H](O)[C@H](O)[C@H]2O)CC[C@]2(C)[C@H]3C(=O)C=C4[C@@H]5C[C@@](C)(C(=O)O)CC[C@]5(C)CC[C@@]4(C)[C@]3(C)CC[C@@H]12 [Compound 1, glycyrrhizinic acid] | 93.94 |

Ask: Return reported Stability, Autosampler for 24 h, Accuracy; argument: O=C1C[C@@H](c2ccc(O[C@@H]3O[C@H](CO)[C@@H](O)[C@H](O)[C@H]3O)cc2)Oc2cc(O)ccc21 [Compound 2, liquiritin]
Reply: 88.92

---

# experimental_details: Pharmacokinetics of four compounds in plasma after oral administration of GSBXD and its plus-minus prescriptions in normal rats (LC-MS/MS)
# Assay type: in vivo
# test_context: Wistar, rat, 12 mL/kg, group GSBXD-GG (GSBXD minus Gancao and Gansui), 12 mL/kg oral, normal rats, n = 6, mean ± S.D.
quantity_kind: AUC(0-t) (ng·h/mL)
// units = ng·h/mL; emit number, no label

| compound | AUC(0-t) / ng·h/mL |
| --- | --- |
| CC12CC(O)C3CC1(OC1OC(CO)C(O)C(O)C1O)C3(COC(=O)c1ccccc1)C(=O)O2 (centres unmarked) | 785 |

Kindly review the next compound as well.
Ask: Return reported AUC(0-t); argument: `C[C@@]12C[C@@]3(O)O[C@@H](O1)[C@]1(COC(=O)c4ccccc4)[C@H]3C[C@@]12O[C@@H]1O[C@H](CO)[C@@H](O)[C@H](O)[C@H]1O`
Reply: 659

---

# experimental_details: Pharmacokinetics of four compounds in plasma after oral administration of GSBXD and its plus-minus prescriptions in normal rats (LC-MS/MS)
# Type: in vivo
# test_context: Wistar, rat, 12 mL/kg, group GSBXD-GC (GSBXD minus Gancao), 12 mL/kg oral, normal rats, n = 6, mean ± S.D.
# Lookup of reported Cmax keyed by entry
// units = ng/mL; emit number, no label

| molecule | numeric_result |
| --- | --- |
| C[C@@]12C[C@@]3(O)O[C@@H](O1)[C@]1(COC(=O)c4ccccc4)[C@H]3C[C@@]12O[C@@H]1O[C@H](CO)[C@@H](O)[C@H](O)[C@H]1O [Compound 3, paeoniflorin] | 74.1 |

Kindly review the next molecule as well.
Ask: Return reported Cmax; argument: CC12CC(O)C3CC1(OC1OC(CO)C(O)C(O)C1O)C3(COC(=O)c1ccccc1)C(=O)O2 (centres unmarked) [Compound 4, albiflorin]
Reply: 88.5

---

# experimental_details: Pharmacokinetics of four compounds in plasma after oral administration of GSBXD and its plus-minus prescriptions in normal rats (LC-MS/MS)
# Assay type: in vivo
# test_context: Wistar, rat, 12 mL/kg, group GSBXD-GG (GSBXD minus Gancao and Gansui), 12 mL/kg oral, normal rats, n = 6, mean ± S.D.
quantity_kind: half-life (h)
// units = h; emit number, no label

| compound | quantity_kind | numeric_result |
| --- | --- | --- |
| C[C@@]12C[C@@]3(O)O[C@@H](O1)[C@]1(COC(=O)c4ccccc4)[C@H]3C[C@@]12O[C@@H]1O[C@H](CO)[C@@H](O)[C@H](O)[C@H]1O [Compound 3, paeoniflorin] | half-life | 21.4 |

Kindly review the next compound as well.
Ask: Return reported half-life; argument: CC12CC(O)C3CC1(OC1OC(CO)C(O)C(O)C1O)C3(COC(=O)c1ccccc1)C(=O)O2 (centres unmarked) [Compound 4, albiflorin]
Reply: 8.73

---

# experimental_details: Pharmacokinetics of four compounds in plasma after oral administration of GSBXD and its plus-minus prescriptions in normal rats (LC-MS/MS)
# Type: in vivo
# test_context: Wistar, rat, 12 mL/kg
# Protocol: Plasma samples (200 μL) and IS solution (50 μL, 1215 ng/mL for diphenhydramine, 476 ng/mL for chloromycetin) were added in an Eppendorf tube, and this mixture was extracted with methanol (550 μL) by shaking on a vortex-mixer for 2 min, and centrifuged for 10 min at 13,000 rpm. […] To determine the pharmacokinetic parameters of compounds 1–4 in different groups, concentration–time data were analyzed by DAS 3.2 software (Mathematical Pharmacology Professional Committee of China, Shanghai, China, 2011). […]
quantity_kind: Tmax (min)
// units = min; emit number, no label

Ask: Return reported Tmax; argument: `C[C@@]12C[C@@]3(O)O[C@@H](O1)[C@]1(COC(=O)c4ccccc4)[C@H]3C[C@@]12O[C@@H]1O[C@H](CO)[C@@H](O)[C@H](O)[C@H]1O`
Reply: 30
